Data origin: paper PMC5736220

Molecular target: T1, protocadherin-15 EC1+2, wild type, His-tagged (mouse, UniProt Q99PJ1 27-259)
T1 construct: Protocadherin-15 (PCDH15), mouse, N-terminal fragment EC1+2; pET21a, NdeI/XhoI; predicted molecular weight 27.5 kDa; Held on the Ni-NTA chip by its His tag in SPR; also called pcdh15; pcdh15(WT); not shown: His6, C-terminal, kept
Assay: thermal scanning (thermal stability shift assay with SYPRO orange); pcdh15 fixed at 0.1 mg/mL (~4 μM), cdh23 0.1 to 0.5 mg/mL (~4 to 20 μM; cdh23:pcdh15 1:1 to 5:1); SEC buffer (20 mM Tris-HCl pH 7.5, 150 mM KCl, 50 mM NaCl, 2 mM CaCl2); 10 to 95°C in 0.2°C steps, 5 s equilibration; read-out: shift of the Tm of pcdh15 (ΔTm)
Settings: both partners purified
assay.readout: ΔTm of pcdh15 at cdh23:pcdh15 4:1 (°C)
Dear colleague, please return just the value in °C, with no unit written.

Some entries whose results are on file:
- protein: "cadherin-23 EC1+2 T15E, His-tagged (domain or fragment, mouse, Cadherin-23 (CDH23), mouse, N-terminal fragment EC1+2; Mutant of m1 made with QuikChange; also called cdh23(T15E)) QVNRLPFFTNHFFDEYLLISEDTPVGSSVTQLLARDMDNDPLVFGVSGEEASRFFAVEPDTGVVWLRQPLDRETKSEFTVEFSVSDHQGVITRKVNIQVGDVNDNAPTFHNQPYSVRIPENTPVGTPIFIVNATDPDLGAGGSVLYSFQPPSPFFAIDSARGIVTVIQELDYEVTQAYQLTVNATDQDKTRPLSTLANLAIIITD"
  assay.readout: "ΔTm of pcdh15 at cdh23:pcdh15 4:1"
  unit.text: "°C"
  observed.result: 6
- protein: "cadherin-23 EC1+2, wild type, His-tagged (domain or fragment, mouse, Cadherin-23 (CDH23), mouse, N-terminal fragment EC1+2; pET21a, NdeI/XhoI; predicted molecular weight 23.8 kDa; also called cdh23; cdh23(WT)) QVNRLPFFTNHFFDTYLLISEDTPVGSSVTQLLARDMDNDPLVFGVSGEEASRFFAVEPDTGVVWLRQPLDRETKSEFTVEFSVSDHQGVITRKVNIQVGDVNDNAPTFHNQPYSVRIPENTPVGTPIFIVNATDPDLGAGGSVLYSFQPPSPFFAIDSARGIVTVIQELDYEVTQAYQLTVNATDQDKTRPLSTLANLAIIITD"
  assay.readout: "ΔTm of pcdh15 at cdh23:pcdh15 4:1"
  unit.text: "°C"
  observed.result: 5
- protein: "cadherin-23 EC1+2 S76V, His-tagged (domain or fragment, mouse, Cadherin-23 (CDH23), mouse, N-terminal fragment EC1+2; Mutant of m1 made with QuikChange; also called cdh23(S76V)) QVNRLPFFTNHFFDTYLLISEDTPVGSSVTQLLARDMDNDPLVFGVSGEEASRFFAVEPDTGVVWLRQPLDRETKVEFTVEFSVSDHQGVITRKVNIQVGDVNDNAPTFHNQPYSVRIPENTPVGTPIFIVNATDPDLGAGGSVLYSFQPPSPFFAIDSARGIVTVIQELDYEVTQAYQLTVNATDQDKTRPLSTLANLAIIITD"
  assay.readout: "ΔTm of pcdh15 at cdh23:pcdh15 4:1"
  unit.text: "°C"
  observed.result: 5.1

Would you kindly look at the next entry?
## Task Recall and state the measured ΔTm of pcdh15 at cdh23:pcdh15 4:1 for cadherin-23 EC1+2 F7E, His-tagged (domain or fragment, mouse, Cadherin-23 (CDH23), mouse, N-terminal fragment EC1+2; Mutant of m1 made with QuikChange; also called cdh23(F7E)) QVNRLPEFTNHFFDTYLLISEDTPVGSSVTQLLARDMDNDPLVFGVSGEEASRFFAVEPDTGVVWLRQPLDRETKSEFTVEFSVSDHQGVITRKVNIQVGDVNDNAPTFHNQPYSVRIPENTPVGTPIFIVNATDPDLGAGGSVLYSFQPPSPFFAIDSARGIVTVIQELDYEVTQAYQLTVNATDQDKTRPLSTLANLAIIITD .
## Result 5.9
